experiment: Mouse pharmacokinetic study, intravenous dosing; format: in vivo; details: male, C57BL/6, mouse, iv; plasma, 10 mg/kg i.v., time 6 h; read-out: Parent compound concentration following intravenous administration
Readout Kind: concentration at 6 h (ng/mL)

I. C=C(CC(=O)O[C@@H](CCCCCC)C(F)(F)F)C(=O)OCC(=O)O [Example 182]
II. C=C(CC(=O)O[C@H](C)CCCCCC)C(=O)OCCC(=O)O [Example 88]
Exercise: Name the one with the greater concentration at 6 h value, either I or II as given. Returns: label corresponding to the selected item.
Solution: II

---

Tested on: IL-1β cytokine output from THP-1s
Experiment: THP-1 AlphaLISA IL-1β cytokine assay
Assay type: cell-based, human
Conditions: Homo sapiens, THP-1, PMA-differentiated THP-1 cells, LPS 24 hr then Nigericin 1 hour; read-out: IL-1β (IC50)
Protocol: Measuring Inhibitory Effects on IL-1β and IL-6 Cytokine Output from THP-1s The cytokine inhibition profiles of compounds of formula (IW-1) were determined in a differentiated THP-1 cell assay. […] Reagents from each of the IL-1β and IL-6 commercial kits (Perkin Elmer) were prepared and run according to the manufacturer's instructions. Subsequently, fluorescence signal detection in a microplate reader was measured (EnVision® Multilabel Reader, Perkin Elmer). […]
pIC50: −log10 of the molar value.
Readout Kind: pIC50

Sample answers from the record:
[
  {
    "Compound": "C=C(CC(=O)OC1CCCCCCC1)C(=O)OCCC(=O)O [Example 82]",
    "pIC50": 4.59
  },
  {
    "Compound": "C=C(CC(=O)OCCCCCCCC)C(=O)OCC(=O)N(C)C [Example 21]",
    "pIC50": 5.54
  },
  {
    "Compound": "C=C(CC(=O)OCCCCCC)C(=O)OCC(=O)O [Example 94]",
    "pIC50": 5.28
  },
  {
    "Compound": "C=C(CC(=O)OCCCC)C(=O)OCCS(=O)(=O)c1ccc(C)cc1 [Example 39]",
    "pIC50": 5.29
  },
  {
    "Compound": "C=C(CC(=O)OC1C2CC3CC(C2)CC1C3)C(=O)OCC(=O)O (stereo not shown) [Example 149]",
    "pIC50": 4.92
  }
]

I. C=C(CC(=O)OCCCCCCCC)C(=O)OC1CCOCC1 [Example 26]
II. C=C(CC(=O)O[C@H](C)CCCCCCC)C(=O)OCC(=O)O [Example 183]
Exercise: Select one. Lower pIC50: I or II Returns: label corresponding to the selected item.
Solution: I
(I: 4.79, II: 5.02)

1. C=C(CC(=O)OCCCCCC)C(=O)OCC(=O)NS(=O)(=O)N(C)C [Example 118]
2. C=C(CC(=O)OCCCCCC)C(=O)OCC(=O)NS(C)(=O)=O [Example 119]
Exercise: Select one. Lower pIC50: 1 or 2 Returns: label corresponding to the selected item.
Solution: 2
(2: 4.08, 1: 4.79)

---

assay: Mouse pharmacokinetic study, oral administration; type: in vivo; conditions: male, C57BL/6, mouse, plasma, po, 100 mg/kg, plasma, male C57BL/6 mice, oral gavage 100 mg/kg, 8 h; read-out: Parent compound concentrations following oral administration, Time 8 h
Readout Kind: concentration at 8 h (ng/mL)

Sample answers from the record:
[
  {
    "Molecule": "C=C(CC(=O)O[C@H](C)CCCCCC)C(=O)OCCC(=O)O [Example 88]",
    "concentration at 8 h / ng/mL": 72
  },
  {
    "Molecule": "C=C(CC(=O)O[C@@H](C)CCCCCC)C(=O)OCCC(=O)O [Example 84]",
    "concentration at 8 h / ng/mL": 217
  },
  {
    "Molecule": "C=C(CC(=O)OC1C(C)(C)CC1(C)C)C(=O)OCC(=O)O [Example 169]",
    "concentration at 8 h / ng/mL": 7.7
  },
  {
    "Molecule": "C=C(CC(=O)O[C@@H](CCCCCC)C(F)(F)F)C(=O)OCC(=O)O [Example 182]",
    "concentration at 8 h / ng/mL": 417
  }
]

A. C=C(CC(=O)OC(C)(C)CCCCCC)C(=O)OCC(=O)O [Example 192]
B. C=C(CC(=O)OC1CCCCC1)C(=O)OCc1nnn[nH]1 [Example 125]
C. C=C(CC(=O)O[C@@H](C)CCCCCC)C(=O)OCc1nn[nH]n1 [Example 164]
D. C=C(CC(=O)OC1CCCCCCC1)C(=O)OCCC(=O)O [Example 82]
E. C=C(CC(=O)O[C@H](C)CCCCCC)C(=O)OCC(=O)O [Example 112]
Exercise: Rank descending by concentration at 8 h. Would you mind listing the labels in the order asked for?
Solution: E, C, D, A, B
(E: 12200 ng/mL, C: 181 ng/mL, D: 86 ng/mL, A: 41 ng/mL, B: 15 ng/mL)
